Entries annotated with measured activity coefficient
assay: activity coefficient (dimensionless); of the first substance listed, at infinite dilution; xn = mol fraction of the nth substance listed; conditions: 323.15 K; 101 kPa; Liquid; Chromatography; x1 = 0
Note: the reply should be a number with no unit written.

[
  {
    "molecule": "ClCCl [dichloromethane] + CCCCCCCCCCCC[n+]1ccn(CCCB(O)O)c1.[Br-]",
    "activity coefficient": 0.34
  },
  {
    "molecule": "CCCCCC [hexane] + CCCCCCCCCCCC[n+]1ccn(CCCB(O)O)c1.[Br-]",
    "activity coefficient": 4.65
  },
  {
    "molecule": "ClC(Cl)Cl [trichloromethane] + C=CCn1cc[n+](C)c1.[Br-]",
    "activity coefficient": 0.25
  },
  {
    "molecule": "C1COCCO1 [1,4-dioxane] + CCCCCCCC[n+]1ccn(CCCB(O)O)c1.[Br-]",
    "activity coefficient": 1.78
  },
  {
    "molecule": "CCC(C)=O [butanone] + CCCCCCCCCC[n+]1ccn(CCCB(O)O)c1.[Br-]",
    "activity coefficient": 1.59
  },
  {
    "molecule": "c1ccsc1 [thiophene] + CCCCCCCCCCCC[n+]1ccn(CCCB(O)O)c1.[Br-]",
    "activity coefficient": 0.9
  }
]

Value lookup for activity coefficient; key = CCOCC [diethyl ether] + C=CCn1cc[n+](C)c1.[Br-]
11.4

Value lookup for activity coefficient; key = ClCCl [dichloromethane] + CCCCCCCC[n+]1ccn(CCCB(O)O)c1.[Br-]
0.41

Value lookup for activity coefficient; key = CCCCCCC [heptane] + CCCCCCCCCC[n+]1ccn(CCCB(O)O)c1.[Br-]
7.04

Value lookup for activity coefficient; key = C1COCCO1 [1,4-dioxane] + C=CC[n+]1ccn(CCCCCCCC)c1.[Br-]
1.52

Value lookup for activity coefficient; key = Cc1cccc(C)c1 [1,3-dimethylbenzene] + C=CC[n+]1ccn(CCCCCCCCCC)c1.[Br-]
2.73

Value lookup for activity coefficient; key = C#CCCCCC [1-heptyne] + C=CC[n+]1ccn(CCCCCCCC)c1.[Br-]
2.56
